Target: Adrenergic receptor alpha-2 (Rattus norvegicus, UniProt P22086+P19328+P22909)
Sequence (P22086 whole entry): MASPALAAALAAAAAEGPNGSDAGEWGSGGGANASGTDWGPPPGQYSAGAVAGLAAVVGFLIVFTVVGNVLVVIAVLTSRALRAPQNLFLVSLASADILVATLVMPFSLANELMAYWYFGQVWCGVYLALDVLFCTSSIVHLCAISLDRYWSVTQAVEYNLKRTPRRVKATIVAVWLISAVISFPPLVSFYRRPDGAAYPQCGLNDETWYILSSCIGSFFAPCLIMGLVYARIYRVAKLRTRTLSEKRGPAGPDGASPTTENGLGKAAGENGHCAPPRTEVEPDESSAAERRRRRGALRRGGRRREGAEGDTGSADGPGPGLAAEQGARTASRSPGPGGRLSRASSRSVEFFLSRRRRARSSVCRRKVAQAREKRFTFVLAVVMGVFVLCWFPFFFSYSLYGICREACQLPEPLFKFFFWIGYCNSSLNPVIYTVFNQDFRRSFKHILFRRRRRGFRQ
Sequence (P19328 whole entry): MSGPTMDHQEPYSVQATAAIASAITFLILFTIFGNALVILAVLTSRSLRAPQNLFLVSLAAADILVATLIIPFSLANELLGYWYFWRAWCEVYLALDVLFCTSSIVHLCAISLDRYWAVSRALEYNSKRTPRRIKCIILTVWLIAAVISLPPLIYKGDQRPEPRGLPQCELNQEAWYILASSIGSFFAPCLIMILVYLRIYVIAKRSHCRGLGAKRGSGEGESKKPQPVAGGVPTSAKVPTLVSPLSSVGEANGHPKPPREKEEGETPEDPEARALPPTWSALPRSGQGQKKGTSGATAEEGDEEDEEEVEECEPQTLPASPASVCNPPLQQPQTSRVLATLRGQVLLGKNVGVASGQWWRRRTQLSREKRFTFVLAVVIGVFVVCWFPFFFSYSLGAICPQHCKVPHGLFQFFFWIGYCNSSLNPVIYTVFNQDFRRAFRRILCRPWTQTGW
Sequence (P22909 whole entry): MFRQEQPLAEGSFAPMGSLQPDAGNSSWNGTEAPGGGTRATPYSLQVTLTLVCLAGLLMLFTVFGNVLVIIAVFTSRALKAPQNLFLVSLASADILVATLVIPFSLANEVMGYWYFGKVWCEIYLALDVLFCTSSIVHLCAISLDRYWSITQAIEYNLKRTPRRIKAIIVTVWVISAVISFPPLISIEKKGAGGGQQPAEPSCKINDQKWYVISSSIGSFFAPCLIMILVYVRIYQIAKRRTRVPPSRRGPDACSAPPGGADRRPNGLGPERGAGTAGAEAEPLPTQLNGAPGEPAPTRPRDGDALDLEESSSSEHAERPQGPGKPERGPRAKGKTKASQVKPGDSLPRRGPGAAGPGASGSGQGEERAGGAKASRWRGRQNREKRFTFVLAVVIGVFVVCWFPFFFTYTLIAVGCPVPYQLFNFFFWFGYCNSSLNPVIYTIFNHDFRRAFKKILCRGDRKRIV
Test: The compound was evaluated for the binding affinity towards alpha-2 adrenergic receptor from rat cortex
measured.parameter: Ki (nM)
Supply the numeric figure in nM, leaving out any unit text.

Exercise: Recorded Ki for Br.Oc1ccc2c(c1O)CCCCC2C1=NCCN1 (centres undefined) , please?
Key: 4000

Exercise: Recorded Ki for Br.Oc1ccc2c(c1O)CCC2C1=NCCN1 (centres undefined) , please?
Key: 3.1

Exercise: Recorded Ki for Br.Oc1ccc2c(c1O)CC2C1=NCCN1 (centres undefined) , please?
Key: 46

Exercise: Recorded Ki for Br.Oc1ccc2c(c1O)CCCC2C1=NCCN1 (centres undefined) , please?
Key: 6.5
